Molecular target: h12/15-LOX (Homo sapiens (Human), UniProt P16050)
Sequence (P16050 whole entry): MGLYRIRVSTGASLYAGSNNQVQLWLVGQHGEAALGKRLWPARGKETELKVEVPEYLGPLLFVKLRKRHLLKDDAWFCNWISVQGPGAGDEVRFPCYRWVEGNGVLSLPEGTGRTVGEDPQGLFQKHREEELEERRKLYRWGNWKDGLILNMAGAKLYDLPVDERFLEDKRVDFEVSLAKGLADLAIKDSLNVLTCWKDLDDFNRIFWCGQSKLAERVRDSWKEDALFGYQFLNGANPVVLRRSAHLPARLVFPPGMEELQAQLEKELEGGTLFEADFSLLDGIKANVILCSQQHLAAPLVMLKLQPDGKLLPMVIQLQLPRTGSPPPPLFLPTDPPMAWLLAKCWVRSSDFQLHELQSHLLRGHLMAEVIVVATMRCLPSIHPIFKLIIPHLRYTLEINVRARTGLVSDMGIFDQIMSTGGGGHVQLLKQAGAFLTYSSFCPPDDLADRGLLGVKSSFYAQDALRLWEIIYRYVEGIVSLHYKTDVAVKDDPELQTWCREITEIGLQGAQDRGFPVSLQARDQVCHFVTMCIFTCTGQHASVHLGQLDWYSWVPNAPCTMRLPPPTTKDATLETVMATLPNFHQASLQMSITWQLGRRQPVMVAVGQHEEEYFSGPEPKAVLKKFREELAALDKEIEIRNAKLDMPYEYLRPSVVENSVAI
Test: 12/15-LOX enzyme inhibition IC50 assay (Examples 1 and 2)
Format: biochemical
Settings: h12/15-LOX; read-out: Max % inhibition
Method: Enzyme was then added to the cuvettes. […] The % inhibition for each test compound concentration were calculated as follows: […]
value.kind: Emax (%)
Give bare numbers, in %.

• CCOCCOCCNc1oc(-c2cc(Cl)cc(Cl)c2Cl)nc1C#N [Compound 69] = 100
• CNc1oc(-c2cc(Cl)cc(C(F)(F)F)c2Cl)nc1C#N [Compound 8] = 94
• N#Cc1nc(-c2cc(Cl)cc(Cl)c2Cl)oc1NCCOCCOc1cccnn1 [Compound 79] = 17
• N#Cc1nc(-c2cc(Cl)cc(Cl)c2Cl)oc1NCCOCCO [Compound 28] = 87
• N#Cc1nc(-c2cc(Cl)cc(Cl)c2Cl)oc1NCC#CCOCc1ccc(OCCN2CCOCC2)cc1 [Compound 87] = 94
• N#Cc1nc(-c2cc(Cl)cc(Cl)c2Cl)oc1NCCOCCN1CCCC(F)(F)C1 [Compound 75] = 61

List the reported Emax of each compound below.
1. N#Cc1nc(-c2cc(Cl)cc(Cl)c2F)oc1NCCCCCO [Compound 25]
2. N#Cc1nc(-c2cc(Cl)cc(C(F)(F)F)c2Cl)oc1NCCCCO [Compound 20]
3. N#Cc1nc(-c2cc(Cl)cc(C(F)(F)F)c2Cl)oc1NCCCCCO [Compound 27]
4. N#Cc1nc(-c2cc(Cl)cc(Cl)c2Cl)oc1NC/C=C/COCc1ccccc1 [Compound 47]
5. COCC/C=C/CNc1oc(-c2cc(Cl)cc(Cl)c2Cl)nc1C#N [Compound 46]
6. N#Cc1nc(-c2cc(Cl)cc(C(F)(F)F)c2Cl)oc1NCCOCCO [Compound 31]
7. Cc1cc(Cl)cc(-c2nc(C#N)c(NCCCCCO)o2)c1Cl [Compound 26]
8. COCCNc1oc(-c2cc(Cl)cc(Cl)c2OC(F)F)nc1C#N [Compound 40]

1. 38
2. 97
3. 70
4. 98
5. 95
6. 99
7. 100
8. 94

Please give Emax, item by item, for the list that follows.
1. C/C=C/CNc1oc(-c2cc(Cl)cc(Cl)c2Cl)nc1C#N [Compound 15]
2. N#Cc1nc(-c2cc(Cl)cc(Cl)c2Cl)oc1NCCOCCN1CCC(F)(F)C1 [Compound 92]
3. CN(CCOCCNc1oc(-c2cc(Cl)cc(Cl)c2Cl)nc1C#N)CC(F)(F)F [Compound 73]
4. C=CCNc1oc(-c2cc(Cl)cc(Cl)c2Cl)nc1C#N [Compound 14]
5. N#Cc1nc(-c2cc(Cl)cc(Cl)c2Cl)oc1NCCOCCNc1ccccc1 [Compound 81]
6. CNc1oc(-c2cc(Cl)cc(C)c2Cl)nc1C#N [Compound 6]
7. CN(CCOCCNc1oc(-c2cc(Cl)cc(Cl)c2Cl)nc1C#N)c1ccccc1 [Compound 95]

1: 92; 2: 86; 3: 70; 4: 88; 5: 95; 6: 99; 7: 83

Need Emax for each of these compounds.
1. N#Cc1nc(-c2cc(Cl)cc(Cl)c2Cl)oc1NCCCO [Compound 16]
2. CNc1oc(-c2cc(Cl)cc(F)c2Cl)nc1C#N [Compound 7]
3. N#Cc1nc(-c2cc(Cl)cc(Cl)c2Cl)oc1NCCOCCN1CCC(F)(F)CC1 [Compound 98]

100
37
79

Dear reader, for each entry below, please note its Emax.
1. CNc1oc(-c2c(Cl)ccc(Cl)c2Cl)nc1C#N
2. N#Cc1nc(-c2cc(Cl)cc(Cl)c2Cl)oc1NCCOCCOc1cccnc1 [Compound 76]

1: 32; 2: 74

Hi there! I need Emax for each item below, if you can.
1. N#Cc1nc(-c2cc(Cl)cc(Cl)c2Cl)oc1NCCOCCOc1ccncc1F [Compound 84]
2. N#Cc1nc(-c2cc(Cl)cc(Cl)c2OC(F)F)oc1NCCCCO [Compound 18]
3. N#Cc1nc(-c2cc(Cl)cc(Cl)c2OC(F)F)oc1NCCCCCO [Compound 23]
4. CNc1oc(-c2cc(F)cc(Cl)c2Cl)nc1C#N [Compound 11]
5. CNc1oc(-c2cc(Cl)cc(Cl)c2Cl)nc1C#N [Compound 1]
6. COCCOCCNc1oc(-c2cc(Cl)cc(Cl)c2OC(F)F)nc1C#N [Compound 33]

1. 68
2. 90
3. 97
4. 93
5. 94
6. 100

Could you tell me Emax for each of these compounds? They are listed below.
1. COc1cnccc1OCCOCCNc1oc(-c2cc(Cl)cc(Cl)c2Cl)nc1C#N [Compound 99]
2. CN(CCF)CCOCCNc1oc(-c2cc(Cl)cc(Cl)c2Cl)nc1C#N [Compound 96]
3. [2H]C([2H])([2H])Nc1oc(-c2cc(Cl)cc(Cl)c2Cl)nc1C#N [Compound 44]
4. COCCOc1ccc(COCC#CCNc2oc(-c3cc(Cl)cc(Cl)c3Cl)nc2C#N)cc1 [Compound 85]
5. COCCOCCNc1oc(-c2cc(Cl)cc(Cl)c2Cl)nc1C#N [Compound 32]

1. 66
2. 93
3. 91
4. 92
5. 96

###

Molecular target: h12/15-LOX (Homo sapiens (Human))
Assay: 12/15-LOX enzyme inhibition IC50 assay (Examples 1 and 2)
Protocol: Enzyme was then added to the cuvettes. […] The % inhibition for each test compound concentration were calculated as follows: […]
pIC50: −log10 of the molar value. Structures can show the parent of a compound that is named as a salt.
# pIC50 >= 6 gives true, anything below gives false

Consider the following illustrative entries.
- Cc1c(Cl)cc(Cl)cc1-c1nc(C#N)c(NCCCCCO)o1: true
- N#Cc1nc(-c2cc(Cl)cc(C(F)(F)F)c2Cl)oc1NCCOCCO: false
- N#Cc1nc(-c2cc(Cl)cc(Cl)c2OC(F)F)oc1NCCCCCO: false

Determine whether this compound has pIC50 no lower than 6: `N#Cc1nc(-c2cc(Cl)cc(Cl)c2Cl)oc1NCCOCCN1CCC(F)(F)C1`
false

Has `COCCOCCNc1oc(-c2cc(C)cc(Cl)c2Cl)nc1C#N` a recorded pIC50 greater than or equal to 6?
false

# bool: pIC50 of `COC/C=C/CNc1oc(-c2cc(Cl)cc(Cl)c2Cl)nc1C#N` >= 6
true

# bool: pIC50 of `COCCOCCOC(=O)N(C)c1oc(-c2cc(Cl)cc(Cl)c2Cl)nc1C#N` >= 6
false

Reported pIC50 at or above 6? `COCCOC(=O)N(C)c1oc(-c2cc(Cl)cc(Cl)c2Cl)nc1C#N`
false

Quick check: does `N#Cc1nc(-c2cc(Cl)cc(Cl)c2Cl)oc1NCCOCCOc1cncnc1` have pIC50 greater than or equal to 6?
true

Has `C/C=C/CNc1oc(-c2cc(Cl)cc(Cl)c2Cl)nc1C#N` a recorded pIC50 greater than or equal to 6?
true

Please tell me: is the compound `COc1cnccc1OCCOCCNc1oc(-c2cc(Cl)cc(Cl)c2Cl)nc1C#N` at or over 6 in terms of pIC50?
false

Tell me whether pIC50 is at least 6 here: `COCCOCCNc1oc(-c2cc(Cl)cc(Cl)c2Cl)nc1C#N`
true

Item `N#Cc1nc(-c2cc(Cl)cc(Cl)c2OC(F)F)oc1NCCCCO` with pIC50 of 6 or above?
false

Is reported pIC50 greater than or equal to 6 here: [2H]C([2H])([2H])N(C(=O)OCCCN(C)C)c1oc(-c2cc(Cl)cc(Cl)c2Cl)nc1C#N [Compound 54, hydrochloride]
false

Please check the record `N#Cc1nc(-c2cc(Cl)cc(Cl)c2Cl)oc1NCCOCCNCC(F)(F)F` and state if its pIC50 is at or above 6.
true

###

Experiment: Metabolic stability of exemplified compounds (Example 4)
Format: in vitro ADME
Details: Rat liver microsomes
value.kind: Extr (EH)

The cases that follow already have their Extr (EH) on record.
• COCC/C=C/CNc1oc(-c2cc(Cl)cc(Cl)c2Cl)nc1C#N [Compound 46] = ** (“**” 50-100%)
• N#Cc1nc(-c2cc(Cl)cc(Cl)c2Cl)oc1NCCCCO [Compound 17] = * (“*” <50%)
• CNc1oc(-c2cc(Cl)cc(Cl)c2Cl)nc1C#N [Compound 1] = * (“*” <50%)
• COCCOCCNc1oc(-c2cc(Cl)cc(Cl)c2Cl)nc1C#N [Compound 32] = * (“*” <50%)

// next item, Extr (EH) requested
Data request, read-out Extr (EH), for COCCOCCCCNc1oc(-c2cc(Cl)cc(Cl)c2Cl)nc1C#N [Compound 48]
** (“**” 50-100%)

###

Test: Metabolic stability of exemplified compounds (Example 4)
Assay type: in vitro ADME
Conditions: Mouse liver microsomes
value.kind: Extr (EH)

- N#Cc1nc(-c2cc(Cl)cc(Cl)c2Cl)oc1NCC#CCOCc1ccccc1 [Compound 43]: ** (“**” 50-100%)
- COCC/C=C/CNc1oc(-c2cc(Cl)cc(Cl)c2Cl)nc1C#N [Compound 46]: ** (“**” 50-100%)
- CC(C)OCCOCCNc1oc(-c2cc(Cl)cc(Cl)c2Cl)nc1C#N [Compound 49]: ** (“**” 50-100%)
- N#Cc1nc(-c2cc(Cl)cc(Cl)c2Cl)oc1NCCCCCO [Compound 22]: * (“*” <50%)
- N#Cc1nc(-c2cc(Cl)cc(Cl)c2Cl)oc1NC/C=C/COCc1ccccc1 [Compound 47]: ** (“**” 50-100%)

Kindly give each listed record's Extr (EH).
1. COCCNc1oc(-c2cc(Cl)cc(Cl)c2Cl)nc1C#N [Compound 39]
2. N#Cc1nc(-c2cc(Cl)cc(Cl)c2Cl)oc1NCCCCO [Compound 17]
3. COC/C=C/CNc1oc(-c2cc(Cl)cc(Cl)c2Cl)nc1C#N [Compound 45]

** (“**” 50-100%)
* (“*” <50%)
** (“**” 50-100%)

Returns the measured Extr (EH) for the input molecule. Input: CNc1oc(-c2cc(Cl)cc(Cl)c2Cl)nc1C#N [Compound 1]
** (“**” 50-100%)
